- target-of-assay: THR beta (Homo sapiens, UniProt P10828)
- Construct: expressed in transfected cells; host or cells: HEK293T (ATCC CRL-3216)
- Sequence (P10828 whole entry, one chain of several): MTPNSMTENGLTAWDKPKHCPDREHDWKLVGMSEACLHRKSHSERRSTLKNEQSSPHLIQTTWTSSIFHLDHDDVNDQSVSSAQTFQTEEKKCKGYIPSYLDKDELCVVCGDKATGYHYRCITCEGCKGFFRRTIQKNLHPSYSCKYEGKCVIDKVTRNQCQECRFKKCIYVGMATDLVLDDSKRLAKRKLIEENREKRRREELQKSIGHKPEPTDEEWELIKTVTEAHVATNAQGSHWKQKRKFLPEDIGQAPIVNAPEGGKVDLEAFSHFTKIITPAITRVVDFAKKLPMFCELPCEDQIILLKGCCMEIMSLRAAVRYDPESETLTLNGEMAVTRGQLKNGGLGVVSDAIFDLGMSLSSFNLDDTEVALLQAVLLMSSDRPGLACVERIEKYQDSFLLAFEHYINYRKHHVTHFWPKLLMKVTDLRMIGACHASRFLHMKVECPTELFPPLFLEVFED
- assay-name: HEK293T THR beta/RXR luciferase reporter assay (Assay 2)
- Format: cell-based
- condition-set: HEK-293T; Table 5; Assay 2; THRβ; read-out: Activity category Assay 2 THRβ (Emax)
Here, each record is paired with measured Emax data.

As a guide, the following entries are already answered.
Emax of O=c1cnn(-c2cc(Cl)c(Oc3cc(-c4ccc5ccccc5c4)c(=O)[nH]n3)c(Cl)c2)c(=O)[nH]1 on THR beta (Homo sapiens, UniProt P10828)?
< 50%

Consider next the molecule Nc1nn(-c2cc(Cl)c(Oc3ccc4c(c3)C3(CCCCC3)C(=O)N4)c(Cl)c2)c(=O)[nH]c1=O in the same way.
> 75%

Consider next the molecule Cc1cc(-n2nc(N)c(=O)[nH]c2=O)cc(C)c1Cc1cc2c(C(C)C)c[nH]c2cn1 in the same way.
> 75%

Consider next the molecule N#CC1CCC1c1cc(Oc2c(Cl)cc(-n3nc(N)c(=O)[nH]c3=O)cc2Cl)n[nH]c1=O (stereo not shown) in the same way.
50 to 75%

Consider next the molecule Cc1cc(-n2ncc(=O)[nH]c2=O)cc(C)c1Cc1ccc2[nH]cc(C(C)C)c2n1 in the same way.
> 75%

Consider next the molecule CC1(C)CN(c2cc(Oc3c(Cl)cc(-n4nc(N)c(=O)[nH]c4=O)cc3Cl)n[nH]c2=O)C1 in the same way.
50 to 75%

Let us examine a further case.
Emax of CC(c1c[nH]c2ccc(Oc3c(Cl)cc(-n4nc(C#N)c(=O)[nH]c4=O)cc3Cl)cc12)C(F)(F)F (stereo not shown) on THR beta (Homo sapiens, UniProt P10828)?
> 75%

====

- target-of-assay: THR alpha (Homo sapiens)
- Construct: expressed in transfected cells; host or cells: HEK293T (ATCC CRL-3216)
- Sequence (P10827 1-410 isoform P10827-2): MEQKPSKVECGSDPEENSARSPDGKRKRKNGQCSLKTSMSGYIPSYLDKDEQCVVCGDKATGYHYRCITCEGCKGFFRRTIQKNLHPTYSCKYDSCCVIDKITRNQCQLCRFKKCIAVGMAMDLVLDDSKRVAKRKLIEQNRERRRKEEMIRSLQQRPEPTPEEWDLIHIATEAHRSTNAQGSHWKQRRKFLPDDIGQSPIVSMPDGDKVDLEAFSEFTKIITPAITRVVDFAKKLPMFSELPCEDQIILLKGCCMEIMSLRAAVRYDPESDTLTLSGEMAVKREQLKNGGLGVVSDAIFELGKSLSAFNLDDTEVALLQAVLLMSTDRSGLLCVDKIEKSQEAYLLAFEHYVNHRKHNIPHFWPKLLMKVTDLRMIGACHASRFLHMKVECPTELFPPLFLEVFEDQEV
- Sequence (P19793 1-462 partner): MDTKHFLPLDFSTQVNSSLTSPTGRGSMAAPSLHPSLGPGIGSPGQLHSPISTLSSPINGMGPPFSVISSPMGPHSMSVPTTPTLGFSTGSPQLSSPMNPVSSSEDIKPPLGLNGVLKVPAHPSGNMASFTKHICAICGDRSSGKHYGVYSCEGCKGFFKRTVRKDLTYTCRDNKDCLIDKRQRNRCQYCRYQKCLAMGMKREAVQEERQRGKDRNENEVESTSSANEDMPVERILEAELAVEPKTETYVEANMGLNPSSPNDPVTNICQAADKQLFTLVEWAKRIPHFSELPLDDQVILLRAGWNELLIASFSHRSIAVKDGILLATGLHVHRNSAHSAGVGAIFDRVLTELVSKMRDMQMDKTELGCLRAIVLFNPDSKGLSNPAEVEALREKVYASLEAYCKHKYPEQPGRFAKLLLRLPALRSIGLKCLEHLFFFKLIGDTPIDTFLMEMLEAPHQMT
- assay-name: HEK293T THR alpha/RXR luciferase reporter assay (Assay 2)
- Type: cell-based
- condition-set: HEK-293T, Table 5; Assay 2; THRα; read-out: Activity category Assay 2 THRα (Emax)
Here, each record is paired with measured Emax data.

As a guide, the following entries are already answered.
// lookup Emax for CC(C)c1n[nH]c2nnc(Oc3c(Cl)cc(-n4nc(C#N)c(=O)[nH]c4=O)cc3Cl)cc12 [Compound 75A]
< 50%

Consider next the compound CCCc1c[nH]c2ccc(Oc3c(Cl)cc(-n4nc(C#N)c(=O)[nH]c4=O)cc3Cl)nc12 [Compound 19] in the same way.
< 50%

Consider next the compound Cc1cc(-n2nc(N)c(=O)[nH]c2=O)cc(C)c1Oc1cc(C(C)C)c(=O)[nH]n1 [Compound 38] in the same way.
< 50%

Continuing:
// lookup Emax for Nc1nn(-c2cc(Cl)c(Oc3ccc4c(c3)C3(CC3)C(=O)N4)c(Cl)c2)c(=O)[nH]c1=O [Compound 143]
> 75%

Consider next the compound Cc1cc(-n2ncc(=O)[nH]c2=O)cc(C)c1Cc1cnc2[nH]cc(C(C)C)c2n1 [Compound 56] in the same way.
50 to 75%

Consider next the compound N#Cc1nn(-c2cc(Cl)c(Oc3ccc4[nH]cc(C5CCCC5)c4c3)c(Cl)c2)c(=O)[nH]c1=O [Compound 5] in the same way.
50 to 75%

Consider next the compound Cc1cc(-n2nc(N)c(=O)[nH]c2=O)cc(C)c1Cc1ccc2[nH]cc(C(C)C)c2n1 [Compound 55] in the same way.
> 75%
